# experimentSummary: Microsomal metabolic stability
# Type: in vitro ADME, human
# measurementContext: human, pH 7.4
Numbered stars: 1 amine (or outer) side, 2 acyl side, 3 side chain; on linkers, the order of the positions; unused ones are H or OH. Bridge positions count the residues as written; N and C are the ends. Square brackets hold non-standard residues; d marks the D form. Peptide text beside a SMILES is read from it. * marks the point of attachment. Piperazine(2S-CO,4-Me) = CN1CCN[C@H](C(=O)O)C1; Phe(3-OMe) = COc1cccc(C[C@H](N)C(=O)O)c1; NH(4-Cl-2-F-phenyl) = Fc1cc(Cl)ccc1N*; Pro(4R-Me) = C[C@H]1CN[C@H](C(=O)O)C1; CO = O=C([*:1])[*:2]
Recorded measurements of Human, one per entry
reportedProperty: Human (h)

molecule	reportedProperty	observedValue
Cc1cccc(C[C@H](NC(=O)Nc2ccc(Cl)cc2F)C(=O)N[C@H]2COC(=O)[C@@H]3C[C@@H](C)CN3C(=O)[C@H](C)NC(=O)[C@@H]3CCCCN3C(=O)[C@@H]3C[C@H](N)CN3C2=O)c1	Human	3.34
COc1cccc(C[C@H](NC(=O)Nc2ccc(Cl)cc2F)C(=O)N[C@H]2COC(=O)[C@@H]3C[C@@H](C)CN3C(=O)[C@H](C)NC(=O)[C@@H]3CN(C)CCN3C(=O)[C@@H]3CCCN3C2=O)c1 [Compound 19] ({NH(4-Cl-2-F-phenyl)-CO}-[Phe(3-OMe)]SP[Piperazine(2S-CO,4-Me)]A[Pro(4R-Me)]; ester 2-C)	Human	0.61

====

Listed next: entries and their corresponding half-life.
# experimentSummary: Plasma pharmacokinetics
# Type: in vivo, male BALB/c mice
# measurementContext: male, BALB/c, mouse, in vivo, iv
Numbered stars: 1 amine (or outer) side, 2 acyl side, 3 side chain; on linkers, the order of the positions; unused ones are H or OH. Bridge positions count the residues as written; N and C are the ends. Square brackets hold non-standard residues; d marks the D form. Peptide text beside a SMILES is read from it. * marks the point of attachment. Piperazine(2S-CO,4-Me) = CN1CCN[C@H](C(=O)O)C1; Phe(3-Me) = Cc1cccc(C[C@H](N)C(=O)O)c1; NH(4-Cl-2-F-phenyl) = Fc1cc(Cl)ccc1N*; Pro(4R-Me) = C[C@H]1CN[C@H](C(=O)O)C1; Hyp = O=C(O)[C@@H]1C[C@@H](O)CN1; aThr = C[C@H](O)[C@H](N)C(=O)O; Pip = O=C(O)[C@@H]1CCCCN1; CO = O=C([*:1])[*:2]

molecule	half-life [h]
Cc1cccc(C[C@H](NC(=O)Nc2ccc(Cl)cc2F)C(=O)N[C@@H]2C(=O)N3C[C@H](O)C[C@H]3C(=O)N3CCN(C)C[C@H]3C(=O)N[C@@H](C)C(=O)N3C[C@H](C)C[C@H]3C(=O)O[C@H]2C)c1 [Compound 31] ({NH(4-Cl-2-F-phenyl)-CO}-[Phe(3-Me)][aThr][Hyp][Piperazine(2S-CO,4-Me)]A[Pro(4R-Me)]; ester 2-C)	1.55
Cc1cccc(C[C@H](NC(=O)Nc2ccc(Cl)cc2F)C(=O)N[C@@H]2C(=O)N3CCC[C@H]3C(=O)N3CCCC[C@H]3C(=O)N[C@@H](C)C(=O)N3C[C@H](C)C[C@H]3C(=O)O[C@H]2C)c1 [Compound 3] ({NH(4-Cl-2-F-phenyl)-CO}-[Phe(3-Me)][aThr]P[Pip]A[Pro(4R-Me)]; ester 2-C)	3.4
Cc1cccc(C[C@H](NC(=O)Nc2ccc(Cl)cc2F)C(=O)N[C@@H]2C(=O)N3C[C@H](O)C[C@H]3C(=O)N3CCCC[C@H]3C(=O)N[C@@H](C)C(=O)N3C[C@H](C)C[C@H]3C(=O)O[C@H]2C)c1 [Compound 6] ({NH(4-Cl-2-F-phenyl)-CO}-[Phe(3-Me)][aThr][Hyp][Pip]A[Pro(4R-Me)]; ester 2-C)	2.82
Cc1cccc(C[C@H](NC(=O)Nc2ccc(Cl)cc2F)C(=O)N[C@@H]2C(=O)N3CCC[C@H]3C(=O)N3CCN(C)C[C@H]3C(=O)N[C@@H](C)C(=O)N3C[C@H](C)C[C@H]3C(=O)O[C@H]2C)c1 [Compound 11] ({NH(4-Cl-2-F-phenyl)-CO}-[Phe(3-Me)][aThr]P[Piperazine(2S-CO,4-Me)]A[Pro(4R-Me)]; ester 2-C)	1.35

====

# experimentSummary: Microsomal metabolic stability
# Format: in vitro ADME, human
# measurementContext: microsomal metabolic stability half-life, human liver microsomes
Numbered stars: 1 amine (or outer) side, 2 acyl side, 3 side chain; on linkers, the order of the positions; unused ones are H or OH. Bridge positions count the residues as written; N and C are the ends. Square brackets hold non-standard residues; d marks the D form. Peptide text beside a SMILES is read from it. * marks the point of attachment. Piperazine(2S-CO,4-Me) = CN1CCN[C@H](C(=O)O)C1; Phe(3,5-F2) = N[C@@H](Cc1cc(F)cc(F)c1)C(=O)O; NH(1-Me-indolin-5-yl) = CN1CCc2cc(N*)ccc21; Morpholine(3S-CO) = O=C(O)[C@@H]1COCCN1; Phe(3-Me) = Cc1cccc(C[C@H](N)C(=O)O)c1; Pro(4R-Me) = C[C@H]1CN[C@H](C(=O)O)C1; X1 = O=C([C@@H]1CSCCN1[*:1])[*:2]; Hyp = O=C(O)[C@@H]1C[C@@H](O)CN1; NH(4-Me-phenyl) = Cc1ccc(N*)cc1; aThr = C[C@H](O)[C@H](N)C(=O)O; Pip = O=C(O)[C@@H]1CCCCN1; 4Abz = Nc1ccc(C(=O)O)cc1; CO = O=C([*:1])[*:2]

compound	Human
Cc1ccc(NC(=O)N[C@@H](Cc2cccc(C)c2)C(=O)N[C@@H]2C(=O)N3C[C@H](O)C[C@H]3C(=O)N3CCN(C)C[C@H]3C(=O)N[C@@H](C)C(=O)N3C[C@H](C)C[C@H]3C(=O)O[C@H]2C)cc1 [Compound 30] ({NH(4-Me-phenyl)-CO}-[Phe(3-Me)][aThr][Hyp][Piperazine(2S-CO,4-Me)]A[Pro(4R-Me)]; ester 2-C)	1.30 ± .305 h
C[C@@H]1C[C@H]2C(=O)O[C@@H](C)[C@H](NC(=O)[C@H](Cc3cc(F)cc(F)c3)NC(=O)Nc3ccc4c(c3)CCN4C)C(=O)N3CCC[C@H]3C(=O)N3CCOC[C@H]3C(=O)N[C@@H](C)C(=O)N2C1 [Compound 32] ({NH(1-Me-indolin-5-yl)-CO}-[Phe(3,5-F2)][aThr]P[Morpholine(3S-CO)]A[Pro(4R-Me)]; ester 2-C)	2.66 ± .66 h
Cc1ccc(NC(=O)N[C@@H](Cc2cccc(C)c2)C(=O)N[C@H]2COC(=O)[C@@H]3CCCN3C(=O)[C@H](C)NC(=O)[C@@H]3CCCCN3C(=O)[C@@H]3C[C@@H](O)CN3C2=O)cc1	0.81 ± .813 h
CCOC(=O)c1ccc(NC(=O)N[C@@H](Cc2cccc(C)c2)C(=O)N[C@@H]2C(=O)N3C[C@H](O)C[C@H]3C(=O)N3CCCC[C@H]3C(=O)N[C@@H](C)C(=O)N3C[C@H](C)C[C@H]3C(=O)O[C@H]2C)cc1 [Compound 36] ({OEt-4Abz-CO}-[Phe(3-Me)][aThr][Hyp][Pip]A[Pro(4R-Me)]; ester 2-C)	4.81 ± .815 h
Cc1ccc(NC(=O)N[C@@H](Cc2cccc(C)c2)C(=O)N[C@@H]2C(=O)N3C[C@H](O)C[C@H]3C(=O)N3CCSC[C@H]3C(=O)N[C@@H](C)C(=O)N3C[C@H](C)C[C@H]3C(=O)O[C@H]2C)cc1 [Compound 42] ({NH(4-Me-phenyl)-CO}-[Phe(3-Me)][aThr][Hyp][X1]A[Pro(4R-Me)]; ester 2-C)	0.81 ± .813 h

====

# experimentSummary: Microsomal metabolic stability
# Format: in vitro ADME, mouse
# measurementContext: CD-1, mouse, pH 7.4
# Experimental: Compounds were initially prepared by dissolving them into DMSO at a final concentration of 10 mM. NADPH regenerating solutions A and B and mouse liver microsomes (CD-1) were obtained from BD Gentest (Woburn, Mass.). […] Sample preparation for microsomal stability was modified from methods of Di, L., et al., Int J Pharm. […] The metabolic stability is evaluated via the half-life from least-squares fit of the multiple time points based on first-order kinetics.
Numbered stars: 1 amine (or outer) side, 2 acyl side, 3 side chain; on linkers, the order of the positions; unused ones are H or OH. Bridge positions count the residues as written; N and C are the ends. Square brackets hold non-standard residues; d marks the D form. Peptide text beside a SMILES is read from it. * marks the point of attachment. Piperazine(2S-CO,4-Me) = CN1CCN[C@H](C(=O)O)C1; Phe(3,5-F2) = N[C@@H](Cc1cc(F)cc(F)c1)C(=O)O; Morpholine(3S-CO) = O=C(O)[C@@H]1COCCN1; Phe(3-Me) = Cc1cccc(C[C@H](N)C(=O)O)c1; NH(4-Cl-2-F-phenyl) = Fc1cc(Cl)ccc1N*; Pro(4R-Me) = C[C@H]1CN[C@H](C(=O)O)C1; Hyp = O=C(O)[C@@H]1C[C@@H](O)CN1; aThr = C[C@H](O)[C@H](N)C(=O)O; Pip = O=C(O)[C@@H]1CCCCN1; X3 = c1cc2c(cc1N*)OCCO2; CO = O=C([*:1])[*:2]; X2 = Fc1cc(N*)ccc1Cl

compound	Mouse
Cc1cccc(C[C@H](NC(=O)Nc2ccc3c(c2)OCCO3)C(=O)N[C@@H]2C(=O)N3C[C@H](O)C[C@H]3C(=O)N3CCOC[C@H]3C(=O)N[C@@H](C)C(=O)N3C[C@H](C)C[C@H]3C(=O)O[C@H]2C)c1 [Compound 27] ({X3-CO}-[Phe(3-Me)][aThr][Hyp][Morpholine(3S-CO)]A[Pro(4R-Me)]; ester 2-C)	0.79 ± .795 h
Cc1cccc(C[C@H](NC(=O)Nc2ccc3c(c2)OCCO3)C(=O)N[C@@H]2C(=O)N3C[C@H](O)C[C@H]3C(=O)N3CCCC[C@H]3C(=O)N[C@@H](C)C(=O)N3C[C@H](C)C[C@H]3C(=O)O[C@H]2C)c1 [Compound 28] ({X3-CO}-[Phe(3-Me)][aThr][Hyp][Pip]A[Pro(4R-Me)]; ester 2-C)	0.79 ± .795 h
Cc1cccc(C[C@H](NC(=O)Nc2ccc(Cl)c(F)c2)C(=O)N[C@H]2COC(=O)[C@@H]3C[C@@H](C)CN3C(=O)[C@H](C)NC(=O)[C@@H]3CN(C)CCN3C(=O)[C@@H]3CCCN3C2=O)c1 [Compound 14] ({X2-CO}-[Phe(3-Me)]SP[Piperazine(2S-CO,4-Me)]A[Pro(4R-Me)]; ester 2-C)	3.15 ± 0.26 h
C[C@@H]1C[C@H]2C(=O)OC[C@H](NC(=O)[C@H](Cc3cc(F)cc(F)c3)NC(=O)Nc3ccc(Cl)cc3F)C(=O)N3CCC[C@H]3C(=O)N3CCN(C)C[C@H]3C(=O)N[C@@H](C)C(=O)N2C1 [Compound 34] ({NH(4-Cl-2-F-phenyl)-CO}-[Phe(3,5-F2)]SP[Piperazine(2S-CO,4-Me)]A[Pro(4R-Me)]; ester 2-C)	1.18 ± .185 h
Cc1cccc(C[C@H](NC(=O)Nc2ccc3c(c2)OCCO3)C(=O)N[C@@H]2C(=O)N3CCC[C@H]3C(=O)N3CCCC[C@H]3C(=O)N[C@@H](C)C(=O)N3C[C@H](C)C[C@H]3C(=O)O[C@H]2C)c1 [Compound 21] ({X3-CO}-[Phe(3-Me)][aThr]P[Pip]A[Pro(4R-Me)]; ester 2-C)	3.38 ± 0.37 h
Cc1cccc(C[C@H](NC(=O)Nc2ccc(Cl)cc2F)C(=O)N[C@H]2COC(=O)[C@@H]3C[C@@H](C)CN3C(=O)[C@H](C)NC(=O)[C@@H]3CCCCN3C(=O)[C@@H]3CCCN3C2=O)c1	1.22 ± 0.13 h
Cc1cccc(C[C@H](NC(=O)Nc2ccc(Cl)cc2F)C(=O)N[C@H]2COC(=O)[C@@H]3C[C@@H](C)CN3C(=O)[C@H](C)NC(=O)[C@@H]3CCCCN3C(=O)[C@@H]3C[C@H](N)CN3C2=O)c1	2.34 ± 0.44 h
Cc1cccc(C[C@H](NC(=O)Nc2ccc(Cl)c(F)c2)C(=O)N[C@@H]2C(=O)N3CCC[C@H]3C(=O)N3CCCC[C@H]3C(=O)N[C@@H](C)C(=O)N3C[C@H](C)C[C@H]3C(=O)O[C@H]2C)c1 [Compound 35] ({X2-CO}-[Phe(3-Me)][aThr]P[Pip]A[Pro(4R-Me)]; ester 2-C)	1.54 ± .545 h
